# Tested on: Staphylococcus aureus
# TEST_PROTOCOL: Antibacterial activity against drug sensitive Staphylococcus aureus RN4220 assessed as reduction in bacterial growth by broth microdilution method
# Type: functional
ENDPOINT: MIC (µg/mL)

[[record]]
molecule = "CNc1nc2ccccc2nc1N"
unit_of_measure = "µg/mL"
qualifier = "="
observed_result = 128

[[record]]
molecule = "Nc1nc2ccccc2nc1NCCc1ccccc1F"
unit_of_measure = "µg/mL"
qualifier = "="
observed_result = 64

[[record]]
molecule = "NC[C@H]1O[C@H](O[C@H]2[C@H](O)[C@@H](O[C@H]3O[C@H](CO)[C@@H](O)[C@H](N)[C@H]3O)[C@H](N)C[C@@H]2N)[C@H](O)[C@@H](O)[C@@H]1O [KANAMYCIN]"
unit_of_measure = "µg/mL"
qualifier = "="
observed_result = 1

[[record]]
molecule = "Nc1nc2ccccc2nc1NCCC1=CCCCC1"
unit_of_measure = "µg/mL"
qualifier = "="
observed_result = 64

[[record]]
molecule = "CCNc1nc2ccccc2nc1N"
unit_of_measure = "µg/mL"
qualifier = "="
observed_result = 128

[[record]]
molecule = "Nc1nc2ccccc2nc1NCCc1ccc(F)cc1"
unit_of_measure = "µg/mL"
qualifier = "="
observed_result = 64

[[record]]
molecule = "Nc1nc2ccccc2nc1NCCc1ccccc1"
unit_of_measure = "µg/mL"
qualifier = "="
observed_result = 32

[[record]]
molecule = "COc1ccc(CCNc2nc3ccccc3nc2N)cc1"
unit_of_measure = "µg/mL"
qualifier = "="
observed_result = 16

[[record]]
molecule = "COc1cccc(CCNc2nc3ccccc3nc2N)c1"
unit_of_measure = "µg/mL"
qualifier = "="
observed_result = 8

[[record]]
molecule = "Nc1nc2ccccc2nc1NCCc1ccc(Cl)c(Cl)c1"
unit_of_measure = "µg/mL"
qualifier = ">"
observed_result = 128

[[record]]
molecule = "Nc1nc2ccccc2nc1NCc1ccc2ccccc2c1"
unit_of_measure = "µg/mL"
qualifier = "="
observed_result = 32

[[record]]
molecule = "Nc1nc2ccccc2nc1NCCCc1ccccc1"
unit_of_measure = "µg/mL"
qualifier = "="
observed_result = 32

[[record]]
molecule = "Nc1nc2ccccc2nc1NCCc1ccccc1Br"
unit_of_measure = "µg/mL"
qualifier = "="
observed_result = 128

[[record]]
molecule = "Nc1nc2ccccc2nc1NCCc1ccc(Br)cc1"
unit_of_measure = "µg/mL"
qualifier = "="
observed_result = 64

[[record]]
molecule = "Nc1nc2ccccc2nc1NCCC1CCCCC1"
unit_of_measure = "µg/mL"
qualifier = "="
observed_result = 128

[[record]]
molecule = "Cc1ccc(CCNc2nc3ccccc3nc2N)cc1"
unit_of_measure = "µg/mL"
qualifier = "="
observed_result = 16

[[record]]
molecule = "CC(C)(C)c1ccc(CCNc2nc3ccccc3nc2N)cc1"
unit_of_measure = "µg/mL"
qualifier = "="
observed_result = 4


----------
# TEST_PROTOCOL: Cytotoxicity against human HK-2 cells assessed as inhibition of cell growth incubated for 24 hrs by MTT assay
# Assay type: toxicity, cell-based
ENDPOINT: IC50 at 24 h (µg/mL)

[[record]]
substance_smiles = "Cc1ccc(CCNc2nc3ccccc3nc2N)cc1"
observed_result = 150

[[record]]
substance_smiles = "COc1ccc(CCNc2nc3ccccc3nc2N)cc1"
observed_result = 139

[[record]]
substance_smiles = "Nc1nc2ccccc2nc1NCCc1ccccc1"
observed_result = 130

[[record]]
substance_smiles = "Nc1nc2ccccc2nc1NCc1ccc2ccccc2c1"
observed_result = 147

[[record]]
substance_smiles = "Nc1nc2ccccc2nc1NCCCc1ccccc1"
observed_result = 141

[[record]]
substance_smiles = "CC(C)(C)c1ccc(CCNc2nc3ccccc3nc2N)cc1"
observed_result = 146

[[record]]
substance_smiles = "COc1cccc(CCNc2nc3ccccc3nc2N)c1"
observed_result = 142


----------
# Tested on: Klebsiella pneumoniae
# TEST_PROTOCOL: Antibacterial activity against drug-resistant Klebsiella pneumoniae assessed as reduction in bacterial growth by broth microdilution method
# Format: functional
ENDPOINT: MIC (µg/mL)

[[record]]
substance_smiles = "Nc1nc2ccccc2nc1NCCc1ccccc1F"
qualifier = ">"
observed_result = 128

[[record]]
substance_smiles = "Nc1nc2ccccc2nc1NCCC1=CCCCC1"
qualifier = ">"
observed_result = 128

[[record]]
substance_smiles = "Nc1nc2ccccc2nc1NCc1ccc2ccccc2c1"
qualifier = ">"
observed_result = 128

[[record]]
substance_smiles = "CCNc1nc2ccccc2nc1N"
qualifier = ">"
observed_result = 128

[[record]]
substance_smiles = "Nc1nc2ccccc2nc1NCCc1ccc(F)cc1"
qualifier = "="
observed_result = 128

[[record]]
substance_smiles = "COc1ccc(CCNc2nc3ccccc3nc2N)cc1"
qualifier = "="
observed_result = 64

[[record]]
substance_smiles = "Nc1nc2ccccc2nc1NCCc1ccccc1Br"
qualifier = "="
observed_result = 64

[[record]]
substance_smiles = "Nc1nc2ccccc2nc1NCCCc1ccccc1"
qualifier = "="
observed_result = 128

[[record]]
substance_smiles = "CNc1nc2ccccc2nc1N"
qualifier = ">"
observed_result = 128

[[record]]
substance_smiles = "Nc1nc2ccccc2nc1NCCc1ccc(Br)cc1"
qualifier = ">"
observed_result = 128

[[record]]
substance_smiles = "COc1cccc(CCNc2nc3ccccc3nc2N)c1"
qualifier = "="
observed_result = 64

[[record]]
substance_smiles = "NC[C@H]1O[C@H](O[C@H]2[C@H](O)[C@@H](O[C@H]3O[C@H](CO)[C@@H](O)[C@H](N)[C@H]3O)[C@H](N)C[C@@H]2N)[C@H](O)[C@@H](O)[C@@H]1O"
qualifier = "="
observed_result = 4

[[record]]
substance_smiles = "Nc1nc2ccccc2nc1NCCc1ccc(Cl)c(Cl)c1"
qualifier = ">"
observed_result = 128

[[record]]
substance_smiles = "Nc1nc2ccccc2nc1NCCc1ccccc1"
qualifier = ">"
observed_result = 128

[[record]]
substance_smiles = "Nc1nc2ccccc2nc1NCCC1CCCCC1"
qualifier = ">"
observed_result = 128

[[record]]
substance_smiles = "CC(C)(C)c1ccc(CCNc2nc3ccccc3nc2N)cc1"
qualifier = "="
observed_result = 128

[[record]]
substance_smiles = "Cc1ccc(CCNc2nc3ccccc3nc2N)cc1"
qualifier = "="
observed_result = 64


----------
# TEST_PROTOCOL: Cytotoxicity against human HEK293 cells assessed as inhibition of cell growth incubated for 24 hrs by MTT assay
# Format: toxicity, cell-based
Known IC50 at 24 h of a selection of compounds
ENDPOINT: IC50 at 24 h (µg/mL)

[[record]]
substance_smiles = "Nc1nc2ccccc2nc1NCc1ccc2ccccc2c1"
observed_result = 131

[[record]]
substance_smiles = "Nc1nc2ccccc2nc1NCCCc1ccccc1"
observed_result = 126

[[record]]
substance_smiles = "CC(C)(C)c1ccc(CCNc2nc3ccccc3nc2N)cc1"
observed_result = 129

[[record]]
substance_smiles = "Cc1ccc(CCNc2nc3ccccc3nc2N)cc1"
observed_result = 136

[[record]]
substance_smiles = "COc1ccc(CCNc2nc3ccccc3nc2N)cc1"
observed_result = 129

[[record]]
substance_smiles = "Nc1nc2ccccc2nc1NCCc1ccccc1"
observed_result = 123

[[record]]
substance_smiles = "COc1cccc(CCNc2nc3ccccc3nc2N)c1"
observed_result = 130

